- Test system: 299254-011-R-J1-PDC complex spheroids viability;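 also: spheroids exposed to the agents for seven days before readout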
- protocol_notes: Anticancer human tumor 299254-011-R-J1-PDC patient-derived melanoma cell line growth inhibition [GQUAD]; active = viability on the fitted dose curve at most 10% of control; inactive = the rest
- test_parameters: second compound 0.1 µM; first compound 3.16 µM
Answer with one of the outcomes active, inactive

Ask | Could you check what this test reported for CC(C)(O)C1CCC(Nc2ccc3ncc(-c4cccc(C(F)(F)F)c4)n3n2)CC1 (stereo not given) + Cc1cnc(CNC(=O)c2c(=O)c3ccc(N4CCCN(C)CC4)nc3n3c2sc2ccccc23)cn1 ?
Reply | inactive

Ask | Entry to check: CC1COCCN1c1cc(C2(S(C)(=N)=O)CC2)nc(-c2ccnc3[nH]ccc23)n1 (stereo not given) + CN(C)c1ccc(Nc2c3ccc(NC(=O)CCN4CCCC4)cc3nc3cc(NC(=O)CCN4CCCC4)ccc23)cc1
Reply | inactive

Ask | Entry to check: C#Cc1c(F)ccc2cc(O)cc(-c3ncc4c(N5CC6CCC(C5)N6)nc(OCC56CCCN5CC(F)C6)nc4c3F)c12 (stereo not given) + CN(C)c1ccc(Nc2c3ccc(NC(=O)CCN4CCCC4)cc3nc3cc(NC(=O)CCN4CCCC4)ccc23)cc1
Reply | inactive

Continuing:
Ask | Could you check what this test reported for CC(=O)O[C@H]1C(=O)[C@@]2(C)[C@H]([C@H](OC(=O)c3ccccc3)[C@]3(O)C[C@H](OC(=O)[C@H](O)[C@@H](NC(=O)c4ccccc4)c4ccccc4)C(C)=C1C3(C)C)[C@]1(OC(C)=O)CO[C@@H]1C[C@@H]2O + Cc1cnc(CNC(=O)c2c(=O)c3ccc(N4CCCN(C)CC4)nc3n3c2sc2ccccc23)cn1 ?
Reply | inactive

Ask | Entry to check: CC1COCCN1c1cc(C2(O)CC3CCC(C2)O3)c2cnn(-c3ccn[nH]3)c2n1 (stereo not given) + CN(C)c1ccc(Nc2c3ccc(NC(=O)CCN4CCCC4)cc3nc3cc(NC(=O)CCN4CCCC4)ccc23)cc1
Reply | inactive

Ask | Entry to check: Cc1cccc(N(C)C(=O)C2C(O)CCN2c2nc(C)cc(C(F)(F)F)c2C#N)c1 (stereo not given) + Cc1cnc(CNC(=O)c2c(=O)c3ccc(N4CCCN(C)CC4)nc3n3c2sc2ccccc23)cn1
Reply | inactive

Measured values drawn from PubChem BioAssay AID2060513 for this set.
